Consider the following compounds; for each one, report its growth.
tested on: MDA-MB-468 breast; assay: NCI-60 one-dose screen, 48 h (100 = growth as untreated, 0 = no growth, -100 = all killed); settings: 10 µM unless noted
This is part of a sample that, as a whole, favours compounds with a hit. Of some 83,000 tested, about 20% had one in any assay.
Numbers only here, please. The scale is %.

Tell me measured growth for "O=C1OC(c2ccc(-c3ccccc3)cc2)=C/C1=C/c1c2ccccc2cc2ccccc12" please. 90.2

Tell me measured growth for "Cc1ccc(C(=O)NN2C(=O)/C(=C/C=C/c3ccco3)SC2=S)cc1" please. 71

Tell me measured growth for "CCN(CC)c1ccc(/C=C2/NC(=O)NC2=O)cc1" please. 37.8

Tell me measured growth for CCCCCn1c(=N)n(CC(O)COc2cccc(C)c2)c2ccccc21 (stereo unspecified) please. -3.97

Tell me measured growth for "CCOc1ccc2nc(NC(=O)Nc3ccccc3C)sc2c1" please. 20.4

Tell me measured growth for "O=C(/C=C/c1cn(-c2ccccc2)nc1-c1ccccc1)CCC(=O)NO" please. 101

Tell me measured growth for "CC(C)N1CCN(c2ccc(OC[C@H]3CO[C@](Cn4cncn4)(c4ccc(Cl)cc4Cl)O3)cc2)CC1" please. 78.9

Tell me measured growth for "O=C(/C=C/c1ccco1)Nc1ncc(Cc2ccc(F)cc2)s1" please. 21.5

Tell me measured growth for "C=CC(=O)N1CC2(CC(n3nc(-c4ccc(Oc5ccccc5)cc4)c4c(N)ncnc43)C2)C1" please. -8.12

Tell me measured growth for "Cn1cc(-c2nnc(N)nc2-c2cn(C)c3ccc(F)cc23)c2cc(F)ccc21" please. 99.8

Tell me measured growth for "COc1ccc(C2=Nn3c(nnc3-n3nc(C)cc3C)SC2)cc1" please. 22.2

Tell me measured growth for "NC(N)=NN=c1c(=O)c2ccccc2c1=O" please. 106

Tell me measured growth for "COc1ccc(-c2n[nH]nc2-c2cc(OC)c(OC)c(OC)c2)cc1" please. -0.494

Tell me measured growth for "CN1CCN(CCCNc2nccc(-c3c(-c4ccc(F)c(O)c4)nc4sccn34)n2)S1(=O)=O" please. 92.9

Tell me measured growth for "CCOC(=O)c1c[nH][nH]c1=O" please. 93.8

Tell me measured growth for "Cc1c2ccncc2c(C)c2c1c1ccccc1n2CCCCCC(=O)O" please. 86.3

Tell me measured growth for CCn1c2ccccc2c2cc(C(O)c3cccc4ncccc34)ccc21 (stereo unspecified) please. 14.2

Tell me measured growth for "CCCCCCCCCCCCCCCC(=O)NS(=O)(=O)OC[C@H]1O[C@@H](n2cnc3c(N)ncnc32)[C@H](O)[C@@H]1O" please. -51.5

Tell me measured growth for "COc1ccc(NC(=O)CSc2nnc(-c3ccc4nc(-c5ccc(OC)c(OC)c5)[nH]c4c3)o2)cc1OC" please. 92.7

Tell me measured growth for "Cc1ccc(NC(=O)c2cc3ccccc3cc2O)c(C)c1" please. 87.6

Tell me measured growth for COc1ccc(NC(=O)C2c3ccccc3C(=O)N(CC(C)C)C2c2cccs2)cc1 (stereo unspecified) please. 82.3
